# Test system: Hepatitis B virus
# Test Name: Effective concentration against HBV in Hep G2.2.15 cells
# Format: functional, organism-based, HepG2 2.2.15
# Test Conditions: Hepatitis B virus, HepG2 2.2.15
Each record here notes measured pEC50.
// pEC50 is dimensionless: -log10 of concentration (M)

[ask] Return reported pEC50; argument: C[C@@H](NP(=O)(OC[C@@H]1C=C[C@H](n2cnc3c(NC4CC4)nc(N)nc32)C1)Oc1ccccc1)C(=O)OC(C)(C)C (some centres undefined)
[reply] 5.30

Next:
[ask] What does the record list as pEC50 for COC(=O)CNP(=O)(OC[C@@H]1C=C[C@H](n2cnc3c(NC4CC4)nc(N)nc32)C1)Oc1ccccc1 (some centres undefined) ?
[reply] 6.00

[ask] So what's the measured pEC50 for this one? CC(C)OC(=O)[C@@H](C)NP(=O)(OC[C@@H]1C=C[C@H](n2cnc3c(NC4CC4)nc(N)nc32)C1)Oc1ccccc1 (some centres undefined)
[reply] 6.26

[ask] Which pEC50 is reported for this compound? CCOC(=O)[C@@H](C)NP(=O)(OC[C@@H]1C=C[C@H](n2cnc3c(NC4CC4)nc(N)nc32)C1)Oc1ccccc1 (stereo in doubt; 6)
[reply] 6.46

[ask] What value of pEC50 has been recorded for this entry: Nc1nc2c(ncn2[C@H]2C=C[C@@H](CO)C2)c(=O)[nH]1
[reply] 4.98

[ask] Using the record for COC(=O)C(C)(C)NP(=O)(OC[C@@H]1C=C[C@H](n2cnc3c(NC4CC4)nc(N)nc32)C1)Oc1ccccc1 (some centres undefined) , report its pEC50.
[reply] 7.72

[ask] Using the record for COC(=O)[C@H](C)NP(=O)(OC[C@@H]1C=C[C@H](n2cnc3c(NC4CC4)nc(N)nc32)C1)Oc1ccccc1 (some centres undefined) , report its pEC50.
[reply] 5.89

[ask] Query (compound): C[C@@H](NP(=O)(O)OC[C@@H]1C=C[C@H](n2cnc3c(NC4CC4)nc(N)nc32)C1)C(=O)O ; field requested: pEC50
[reply] 5.30

[ask] What does the data say about its pEC50? Entry: Nc1nc(NC2CC2)c2ncn([C@H]3C=C[C@@H](CO)C3)c2n1
[reply] 5.25

###

# Test system: Human immunodeficiency virus 1
# Test Name: Effective concentration against human immunodeficiency virus type 1 in MT-4 cells
# Assay type: functional, organism-based, MT4
# Test Conditions: Human immunodeficiency virus 1, MT4
Measured Parameter: log10 of EC50 (log10 of the value in µM)
Transform log10 | Measure EC50 | Unit µM

Use the examples below as a reference point.
[ask] Lookup: log10 of EC50 / Human immunodeficiency virus 1 / C[C@@H](NP(=O)(OC[C@@H]1C=C[C@H](n2cnc3c(NC4CC4)nc(N)nc32)C1)Oc1ccccc1)C(=O)OC(C)(C)C (stereo partly specified)
[reply] 0.82

[ask] Param readout = log10 of EC50; param system = Human immunodeficiency virus 1; param query = COC(=O)C(C)(C)NP(=O)(OC[C@@H]1C=C[C@H](n2cnc3c(NC4CC4)nc(N)nc32)C1)Oc1ccccc1 (stereo partly specified) ; response: value
[reply] -0.85

From here, focus on the item given below.
[ask] Find log10 of EC50 (Human immunodeficiency virus 1) for the entry CC(C)OC(=O)[C@@H](C)NP(=O)(OC[C@@H]1C=C[C@H](n2cnc3c(NC4CC4)nc(N)nc32)C1)Oc1ccccc1 (stereo partly specified)
[reply] -0.70

The reported numbers originate from ChEMBL document CHEMBL1139507.
